Experiment: Cytotoxicity against HEL cells assessed as reduction of cell growth after 3 days
Type: cell-based
Conditions: human
Quantity: CC50 at 72 h

Compound	CC50 at 72 h
Cc1cc(-c2ccsc2)cn2c(CSCCc3ccccc3)cnc12	> 50 µg/mL
Cc1cc(I)cn2c(CSCCc3ccccc3)cnc12	> 50 µg/mL

Recall and state the measured CC50 at 72 h for `Cc1cc(-c2ccccc2O)cn2c(CSCCc3ccccc3)cnc12` .
> 50 µg/mL

Name the recorded CC50 at 72 h of the compound listed here: `COc1cccc(-c2cc(C)cn3c(CSCCc4ccccc4)cnc23)c1`
> 50 µg/mL

Check the records and state CC50 at 72 h for `Cc1cc(-c2cccs2)cn2c(CSCCc3ccccc3)cnc12`
32 µg/mL

Look up and state reported CC50 at 72 h for Nc1nc2c(ncn2COCCO)c(=O)[nH]1 [ACYCLOVIR]
> 200 µg/mL

Specify CC50 at 72 h for `COc1ccc(-c2cc(C)cn3c(CSCCc4ccccc4)cnc23)cc1` and stop.
19.6 µg/mL

Using the record for `Cc1cc(-c2cccc(C#N)c2)cn2c(CSCCc3ccccc3)cnc12` , state its measured CC50 at 72 h.
> 50 µg/mL
